Ref: paper PMC12040169

Quick list: viability at 28.5 h, 10 µM per entry.
experiment.description: in vitro
measurement.setup: human, hela cells, % viability
Entry rule: numbers only, all in %.

Query: Would you kindly share the measured viability at 28.5 h, 10 µM for Cc1ccc(Cl)cc1N(CC(=O)Nc1ccccc1C(=O)O)S(C)(=O)=O [CBK264020] ?
Reply: 89.5

Query: Check Cc1nc2ccc(NC(=O)CC3CCN(S(=O)(=O)c4cccc(F)c4)CC3)cc2[nH]1 [CBK285903] too.
Reply: 88.8

Query: Check O=C1Oc2nc3ccccc3cc2CN1C1CC1 [CBK282870] too.
Reply: 87.9

###

experiment.description: in vitro
measurement.setup: human, hela cells, % viability
Quick list: viability at 28.5 h, 10 µM per entry.
Entry rule: numbers only, all in %.

// worked examples, viability at 28.5 h, 10 µM included
Cc1ccc(S(=O)(=O)NC2c3cccc4cccc(c34)C2Sc2nncn2N)cc1 (stereo not drawn); 112
Cc1nn(C)cc1S(=O)(=O)N1CCCC(c2cccc(Cc3ccc(Cl)cc3)n2)C1 (stereo not drawn); 88.4

Query: Would you kindly share the measured viability at 28.5 h, 10 µM for COCC(C)NC(=O)Cn1c(-c2ccc(F)cc2)cc2cccnc21 (stereo not drawn) ?
Reply: 113
